Biological target: T1, hVEGF-A (8-109) (human, UniProt P15692 214-315)
T1 construct: residue numbers count on mature VEGF-A; dimer
T1 sequence (looked up): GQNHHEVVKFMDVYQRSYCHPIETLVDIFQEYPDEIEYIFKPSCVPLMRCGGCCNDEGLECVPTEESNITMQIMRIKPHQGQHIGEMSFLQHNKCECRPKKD
Assay: spot phage ELISA
Classes based on ELISA: low (below 0.9), medium (0.9 to below 2), high (2 or more)

[
  {
    "binder": "GCNIMLPFWGCGLDYDCLAGCVCQYYQSCG (designed binder) [VEGF_CKP9.54.2]",
    "assigned.class": "low"
  }
]

Please indicate the class for GCDVLQPFWGCKQDSDCLAGCVCHWYQSCG (designed binder) [VEGF_CKP9.2] based on its ELISA.
high

Please indicate the class for GCHMMYDYCKQDSDCLAGCVCEMYDACG (designed binder) [VEGF_CKP3] based on its ELISA.
high

Please indicate the class for GCNIMLPFWGCGVDYLCLAGCVCQYYQSCG (designed binder) [VEGF_CKP9.54.16] based on its ELISA.
high

Please indicate the class for GCNIMLPFWGCSRDFDCLAGCVCQYYQSCG (designed binder) [VEGF_CKP9.54.44] based on its ELISA.
high

Please indicate the class for GCDRMQPYWGCKQDSDCLAGCVCQWYKSCG (designed binder) [VEGF_CKP9.11] based on its ELISA.
medium

Please indicate the class for GCQDPTVNWAVYCKQDSDCLAGCVCQFYQSCG (designed binder) [VEGF_CKP7.17] based on its ELISA.
low

Please indicate the class for GCPRILMRCKQDSDCLAGCVCGPNGFCG [EETI-II] based on its ELISA.
low

Please indicate the class for GCKDTTFNWGLFCKQDSDCLAGCVCQLYQSCG (designed binder) [VEGF_CKP7.78] based on its ELISA.
low

Please indicate the class for GCHRLQPLWGCKQDSDCLAGCVCHWYQSCG (designed binder) [VEGF_CKP9.L1.19] based on its ELISA.
medium

Please indicate the class for GCVTPWKPHWINCKQDSDCLAGCVCGPNGFCG (designed binder) [VEGF_CKP13] based on its ELISA.
high
